Molecular target: T1, human OPGbp [143-317] (human, UniProt O14788 143-317)
T1 construct: also called OPGL
T1 sequence (looked up): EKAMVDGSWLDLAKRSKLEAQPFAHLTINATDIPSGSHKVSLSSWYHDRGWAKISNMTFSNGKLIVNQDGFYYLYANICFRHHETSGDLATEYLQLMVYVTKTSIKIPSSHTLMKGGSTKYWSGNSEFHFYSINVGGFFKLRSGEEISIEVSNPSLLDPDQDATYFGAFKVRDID
Test: SPR (BIAcore), immobilized OPGbp [143-317]
PARAMETER: kon (M⁻¹ s⁻¹)
Write down the numeric answer in M⁻¹ s⁻¹ and omit the unit.

Observe how each entry below is paired with its result.
BINDER: “AT” antibody variant N98A (heavy chain CDR3) (antibody, name in Kabat numbering, V domains shown, not shown: human IgG1 CH1, hinge, CH2 and CH3) VH: QVQLVQSGAEVRKPGASVKVSCKASGYDFSNYAIHWVRQAPGQRLEWMGWINAGNGNTKFSQKFQGRITVTRDTAASTAYMELRSLRSEDTAVYYCARDSSAMVRGIIIAYYFDYWGQGTLVTVSS VL: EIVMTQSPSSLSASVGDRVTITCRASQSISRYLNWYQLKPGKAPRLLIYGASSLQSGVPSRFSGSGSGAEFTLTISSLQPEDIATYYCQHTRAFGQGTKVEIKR
REPORTED MEASUREMENT: 1.3e+06
//
BINDER: “AT” antibody variant S97A (heavy chain CDR3) (antibody, name in Kabat numbering, V domains shown, not shown: human IgG1 CH1, hinge, CH2 and CH3) VH: QVQLVQSGAEVRKPGASVKVSCKASGYDFSNYAIHWVRQAPGQRLEWMGWINAGNGNTKFSQKFQGRITVTRDTAASTAYMELRSLRSEDTAVYYCARDSANMVRGIIIAYYFDYWGQGTLVTVSS VL: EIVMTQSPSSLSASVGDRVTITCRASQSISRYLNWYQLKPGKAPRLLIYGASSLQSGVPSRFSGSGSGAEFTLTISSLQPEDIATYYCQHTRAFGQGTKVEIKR
REPORTED MEASUREMENT: 530000

Now turn to the next binder.
Any idea what kon was measured for “AT” antibody variant S96A (heavy chain CDR3) (antibody, name in Kabat numbering, V domains shown, not shown: human IgG1 CH1, hinge, CH2 and CH3) VH: QVQLVQSGAEVRKPGASVKVSCKASGYDFSNYAIHWVRQAPGQRLEWMGWINAGNGNTKFSQKFQGRITVTRDTAASTAYMELRSLRSEDTAVYYCARDASNMVRGIIIAYYFDYWGQGTLVTVSS VL: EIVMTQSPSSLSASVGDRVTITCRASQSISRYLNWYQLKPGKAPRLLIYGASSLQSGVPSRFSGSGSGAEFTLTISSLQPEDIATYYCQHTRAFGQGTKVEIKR ? 260000
